biological target: KRAS G13D antigen (G13D-RT6, SEQ ID NO: 20) loaded on Lovo-DPA0301:DPB0501 cells (human); assay: cell-based or functional assay
I'd appreciate it if you could supply TCR Mut RLU/WT RLU values for the items below.
Number in ratio, nothing else.

Value of TCR Mut RLU/WT RLU reported for the binder B8.2.4 TCR mutant β95Q-K (TCR, V domains shown) V domain 1: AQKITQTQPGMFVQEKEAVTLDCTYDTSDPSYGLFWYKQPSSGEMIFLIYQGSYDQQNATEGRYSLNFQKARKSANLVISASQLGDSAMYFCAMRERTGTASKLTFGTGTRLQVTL V domain 2: DVKVTQSSRYLVKRTGEKVFLECVQDMDHENMFWYRQDPGLGLRLIYFSYDVKMKEKGDIPEGYSVSREKKERFSLILESASTNQTSMYLCASSKTVPPQHFGDGTRLSILE is 0.3

Entry B8.2.4 TCR mutant β98P-D (TCR, V domains shown) V domain 1: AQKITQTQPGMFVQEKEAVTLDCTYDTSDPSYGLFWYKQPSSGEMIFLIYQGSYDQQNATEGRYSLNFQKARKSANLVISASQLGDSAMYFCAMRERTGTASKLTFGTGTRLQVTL V domain 2: DVKVTQSSRYLVKRTGEKVFLECVQDMDHENMFWYRQDPGLGLRLIYFSYDVKMKEKGDIPEGYSVSREKKERFSLILESASTNQTSMYLCASSQTVDPQHFGDGTRLSILE , TCR Mut RLU/WT RLU reported as 0.8

Sample B8.2.4 TCR mutant β98P-G (TCR, V domains shown) V domain 1: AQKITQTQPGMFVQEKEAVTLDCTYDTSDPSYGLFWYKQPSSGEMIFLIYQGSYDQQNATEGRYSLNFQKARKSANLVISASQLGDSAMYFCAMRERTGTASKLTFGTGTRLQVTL V domain 2: DVKVTQSSRYLVKRTGEKVFLECVQDMDHENMFWYRQDPGLGLRLIYFSYDVKMKEKGDIPEGYSVSREKKERFSLILESASTNQTSMYLCASSQTVGPQHFGDGTRLSILE ; TCR Mut RLU/WT RLU observed: 0.73
